Assay: AUC in Sprague-Dawley rat at 10 mg/kg, iv by UFLC-MS/MS analysis
Format: ADME, organism-based
Settings: in vivo
Measurement Label: AUC (ng·h/mL)

[[record]]
substance_smiles = "COC(=O)c1ccc2c(c1)NC(=O)/C2=C(\\Nc1ccc2c(c1)N(C(=O)CN1CCOCC1)CC2)c1ccccc1"
recorded_number = 6410


* * *

Target: Mast/stem cell growth factor receptor Kit (Homo sapiens, UniProt P10721)
Sequence (P10721 whole entry): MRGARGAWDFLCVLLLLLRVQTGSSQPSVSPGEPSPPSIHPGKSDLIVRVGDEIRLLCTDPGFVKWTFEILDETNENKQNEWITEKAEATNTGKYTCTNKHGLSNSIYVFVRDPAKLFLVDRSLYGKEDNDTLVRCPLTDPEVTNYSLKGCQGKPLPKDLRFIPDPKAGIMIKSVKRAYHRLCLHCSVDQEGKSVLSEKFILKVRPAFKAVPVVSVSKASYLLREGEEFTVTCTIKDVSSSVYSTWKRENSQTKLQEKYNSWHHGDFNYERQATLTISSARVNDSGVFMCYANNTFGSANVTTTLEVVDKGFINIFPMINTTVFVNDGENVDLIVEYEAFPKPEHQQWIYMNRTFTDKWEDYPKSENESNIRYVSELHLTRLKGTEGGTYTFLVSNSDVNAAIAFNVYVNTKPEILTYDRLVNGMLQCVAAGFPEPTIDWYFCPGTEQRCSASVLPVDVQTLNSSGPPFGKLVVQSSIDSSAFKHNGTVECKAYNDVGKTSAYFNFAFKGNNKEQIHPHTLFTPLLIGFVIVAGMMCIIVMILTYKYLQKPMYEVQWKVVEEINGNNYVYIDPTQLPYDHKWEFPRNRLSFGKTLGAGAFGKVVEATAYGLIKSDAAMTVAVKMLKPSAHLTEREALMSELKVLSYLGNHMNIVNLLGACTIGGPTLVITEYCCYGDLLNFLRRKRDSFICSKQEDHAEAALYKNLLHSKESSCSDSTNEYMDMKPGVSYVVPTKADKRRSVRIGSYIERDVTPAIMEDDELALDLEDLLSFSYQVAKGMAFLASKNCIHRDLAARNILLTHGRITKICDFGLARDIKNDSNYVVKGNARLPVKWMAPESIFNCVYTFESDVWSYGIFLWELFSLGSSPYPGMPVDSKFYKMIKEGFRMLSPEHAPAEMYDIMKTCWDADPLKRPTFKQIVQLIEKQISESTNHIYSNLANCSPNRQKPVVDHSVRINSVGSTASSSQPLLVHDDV
Experiment: Inhibition of recombinant c-KIT (unknown origin) by off-chip mobility shift assay
Measurement Label: IC50

[[record]]
substance_smiles = "COC(=O)c1ccc2c(c1)NC(=O)/C2=C(\\Nc1ccc2c(c1)N(C(=O)CN1CCOCC1)CC2)c1ccccc1"
measurement_label = "IC50"
result = "0.01 µM"


* * *

Test: AUC in Beagle dog […] at 20 mg/kg, iv by UFLC-MS/MS analysis
Type: ADME, organism-based, Canis lupus familiaris
Details: in vivo
Measurement Label: AUC

[[record]]
substance_smiles = "COC(=O)c1ccc2c(c1)NC(=O)/C2=C(\\Nc1ccc2c(c1)N(C(=O)CN1CCOCC1)CC2)c1ccccc1"
measurement_label = "AUC"
result = "2960 ng·h/mL"


* * *

Test: Oral bioavailability in Beagle dog […] at 20 mg/kg administered via gavage by UFLC-MS/MS analysis
Assay type: ADME, organism-based, Canis lupus familiaris
Conditions: in vivo
Measurement Label: bioavailability (%)

[[record]]
substance_smiles = "COC(=O)c1ccc2c(c1)NC(=O)/C2=C(\\Nc1ccc2c(c1)N(C(=O)CN1CCOCC1)CC2)c1ccccc1"
unit = "%"
recorded_number = 29


* * *

Assay: Half life in CD1 mouse at 50 mg/kg, iv by UFLC-MS/MS analysis
Assay type: ADME, organism-based
Conditions: in vivo
Measurement Label: half-life (h)

[[record]]
substance_smiles = "COC(=O)c1ccc2c(c1)NC(=O)/C2=C(\\Nc1ccc2c(c1)N(C(=O)CN1CCOCC1)CC2)c1ccccc1"
recorded_number = 4.3


* * *

Assay: AUC in CD1 mouse at 50 mg/kg, iv by UFLC-MS/MS analysis
Assay type: ADME, organism-based
Conditions: in vivo
Measurement Label: AUC (ng·h/mL)

[[record]]
substance_smiles = "COC(=O)c1ccc2c(c1)NC(=O)/C2=C(\\Nc1ccc2c(c1)N(C(=O)CN1CCOCC1)CC2)c1ccccc1"
unit = "ng·h/mL"
recorded_number = 17000


* * *

pIC50: −log10 of the molar value.
The reader will find pIC50 measurements below, all made with Voltage-gated inwardly rectifying potassium channel KCNH2 (Homo sapiens, UniProt Q12809).
Sequence (Q12809 whole entry): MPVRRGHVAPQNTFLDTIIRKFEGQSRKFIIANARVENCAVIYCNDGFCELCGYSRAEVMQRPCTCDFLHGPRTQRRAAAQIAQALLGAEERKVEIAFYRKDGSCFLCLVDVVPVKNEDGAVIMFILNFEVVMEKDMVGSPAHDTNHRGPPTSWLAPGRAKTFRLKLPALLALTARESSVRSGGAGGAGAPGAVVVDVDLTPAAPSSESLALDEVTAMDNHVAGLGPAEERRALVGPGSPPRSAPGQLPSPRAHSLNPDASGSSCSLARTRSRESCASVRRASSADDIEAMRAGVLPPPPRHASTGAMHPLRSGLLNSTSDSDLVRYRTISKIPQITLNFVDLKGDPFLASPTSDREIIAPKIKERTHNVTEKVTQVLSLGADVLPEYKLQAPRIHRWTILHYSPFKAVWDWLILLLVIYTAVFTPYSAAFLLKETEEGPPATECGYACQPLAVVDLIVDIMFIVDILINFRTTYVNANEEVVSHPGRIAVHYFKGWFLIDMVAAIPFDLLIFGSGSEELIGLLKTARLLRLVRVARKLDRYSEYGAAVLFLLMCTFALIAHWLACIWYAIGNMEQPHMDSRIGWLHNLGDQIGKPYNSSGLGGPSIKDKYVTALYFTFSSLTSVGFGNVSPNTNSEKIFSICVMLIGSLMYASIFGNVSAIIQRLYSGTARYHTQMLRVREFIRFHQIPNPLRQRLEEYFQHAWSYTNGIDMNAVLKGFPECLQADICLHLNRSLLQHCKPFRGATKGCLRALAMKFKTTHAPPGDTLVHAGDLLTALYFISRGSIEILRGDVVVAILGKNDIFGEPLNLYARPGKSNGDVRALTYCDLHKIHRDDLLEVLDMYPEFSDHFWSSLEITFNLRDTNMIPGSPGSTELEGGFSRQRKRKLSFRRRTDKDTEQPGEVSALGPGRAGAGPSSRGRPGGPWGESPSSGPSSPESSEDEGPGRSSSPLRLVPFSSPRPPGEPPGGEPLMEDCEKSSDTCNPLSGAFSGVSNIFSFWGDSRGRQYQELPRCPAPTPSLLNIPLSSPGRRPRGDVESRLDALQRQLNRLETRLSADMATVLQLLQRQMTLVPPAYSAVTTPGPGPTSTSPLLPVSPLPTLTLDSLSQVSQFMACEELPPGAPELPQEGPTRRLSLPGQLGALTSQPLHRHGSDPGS
Measurement Label: pIC50

[[record]]
compound = "COC(=O)c1ccc2c(c1)NC(=O)/C2=C(\\Nc1ccc2c(c1)N(C(=O)CN1CCCC1=O)CC2)c1ccccc1"
result = "< 7.52"

[[record]]
compound = "COC(=O)c1ccc2c(c1)NC(=O)/C2=C(\\Nc1ccc2c(c1)N(C(=O)CN1CC(C)OC(C)C1)CC2)c1ccccc1 (stereo unspecified)"
result = "< 7.52"

[[record]]
compound = "COC(=O)c1ccc2c(c1)NC(=O)/C2=C(\\Nc1ccc2c(c1)N(C(=O)CN1CCOCC1)CC2)c1ccccc1"
result = "< 7.52"

[[record]]
compound = "COC(=O)c1ccc2c(c1)NC(=O)/C2=C(\\Nc1ccc2c(c1)N(C(=O)Cn1cncn1)CC2)c1ccccc1"
result = "< 7.52"

[[record]]
compound = "COC(=O)c1ccc2c(c1)NC(=O)/C2=C(\\Nc1ccc(N(C)C(=O)CN2CCN(C)CC2)cc1)c1ccccc1 [NINTEDANIB]"
result = 8.59

[[record]]
compound = "COC(=O)c1ccc2c(c1)NC(=O)/C2=C(\\Nc1ccc2c(c1)N(C(=O)Cn1cccn1)CC2)c1ccccc1"
result = "< 7.52"


* * *

Test: Oral bioavailability in CD1 mouse at 50 mg/kg administered via gavage by UFLC-MS/MS analysis
Format: ADME, organism-based
Settings: in vivo
Measurement Label: bioavailability (%)

[[record]]
substance_smiles = "COC(=O)c1ccc2c(c1)NC(=O)/C2=C(\\Nc1ccc2c(c1)N(C(=O)CN1CCOCC1)CC2)c1ccccc1"
measurement_label = "bioavailability"
unit = "%"
recorded_number = 51


* * *

Listed below: IC50 values for each entry.
Biological target: Platelet-derived growth factor receptor beta (Homo sapiens, UniProt P09619)
Sequence (P09619 whole entry): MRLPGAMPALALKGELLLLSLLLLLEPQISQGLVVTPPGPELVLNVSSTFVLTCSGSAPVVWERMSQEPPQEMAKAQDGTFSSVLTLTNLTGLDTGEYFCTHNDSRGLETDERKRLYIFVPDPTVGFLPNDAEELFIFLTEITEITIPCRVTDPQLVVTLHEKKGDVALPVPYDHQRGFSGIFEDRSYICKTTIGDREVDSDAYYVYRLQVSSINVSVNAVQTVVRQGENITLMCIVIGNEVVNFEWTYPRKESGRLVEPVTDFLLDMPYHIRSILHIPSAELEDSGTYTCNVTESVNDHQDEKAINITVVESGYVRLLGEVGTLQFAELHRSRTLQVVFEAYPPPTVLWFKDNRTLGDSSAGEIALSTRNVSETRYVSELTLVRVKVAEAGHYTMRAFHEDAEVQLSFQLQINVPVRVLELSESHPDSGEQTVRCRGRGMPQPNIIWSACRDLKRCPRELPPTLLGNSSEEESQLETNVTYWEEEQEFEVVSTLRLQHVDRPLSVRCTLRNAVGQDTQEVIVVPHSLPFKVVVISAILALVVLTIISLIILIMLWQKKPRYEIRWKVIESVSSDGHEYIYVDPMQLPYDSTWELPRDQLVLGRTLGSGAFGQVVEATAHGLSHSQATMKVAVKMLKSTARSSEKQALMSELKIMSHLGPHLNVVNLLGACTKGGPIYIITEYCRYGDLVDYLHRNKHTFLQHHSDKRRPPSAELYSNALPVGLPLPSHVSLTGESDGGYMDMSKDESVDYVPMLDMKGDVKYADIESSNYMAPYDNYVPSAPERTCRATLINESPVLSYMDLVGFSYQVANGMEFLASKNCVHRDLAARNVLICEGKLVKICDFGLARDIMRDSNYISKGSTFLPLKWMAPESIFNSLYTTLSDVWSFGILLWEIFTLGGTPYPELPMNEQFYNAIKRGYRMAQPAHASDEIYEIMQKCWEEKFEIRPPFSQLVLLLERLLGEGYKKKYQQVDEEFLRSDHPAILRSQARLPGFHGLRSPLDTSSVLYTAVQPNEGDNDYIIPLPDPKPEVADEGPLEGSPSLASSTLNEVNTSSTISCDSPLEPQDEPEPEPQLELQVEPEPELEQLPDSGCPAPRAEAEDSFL
Assay: Inhibition of recombinant PDGFRbeta (unknown origin) by off-chip mobility shift assay
Measurement Label: IC50 (nM)

[[record]]
molecule = "COC(=O)c1ccc2c(c1)NC(=O)/C2=C(\\Nc1ccc2c(c1)N(C(=O)CN1CCCC1=O)CC2)c1ccccc1"
recorded_number = 19

[[record]]
molecule = "CN1CCN(CC(=O)N(C)c2ccc(N/C(=C3\\C(=O)Nc4cc(-c5ccco5)ccc43)c3ccccc3)cc2)CC1"
recorded_number = 12

[[record]]
molecule = "COC(=O)c1ccc2c(c1)NC(=O)/C2=C(\\Nc1ccc2c(c1)N(C(=O)Cn1cccn1)CC2)c1ccccc1"
recorded_number = 24

[[record]]
molecule = "CN1CCN(CC(=O)N(C)c2ccc(N/C(=C3\\C(=O)Nc4cc(-c5cnco5)ccc43)c3ccccc3)cc2)CC1"
recorded_number = 34

[[record]]
molecule = "COC(=O)c1ccc2c(c1)NC(=O)/C2=C(\\Nc1ccc2c(c1)N(C(=O)CN1CCOCC1)CC2)c1ccccc1"
recorded_number = 25

[[record]]
molecule = "COC(=O)c1ccc2c(c1)NC(=O)/C2=C(\\Nc1ccc(N2C(=O)CC[C@@H]2CN(C)C)cc1)c1ccccc1"
recorded_number = 14

[[record]]
molecule = "COC(=O)c1ccc2c(c1)NC(=O)/C2=C(\\Nc1ccc(N2CCC(CN3CCN(C)CC3)C2=O)cc1)c1ccccc1 (configuration not stated)"
recorded_number = 45

[[record]]
molecule = "COC(=O)c1ccc2c(c1)NC(=O)/C2=C(\\Nc1ccc2c(c1)N(C(=O)Cn1cncn1)CC2)c1ccccc1"
recorded_number = 15

[[record]]
molecule = "CN1CCN(CC(=O)N(C)c2ccc(N/C(=C3\\C(=O)Nc4cc(OC(F)(F)F)ccc43)c3ccccc3)cc2)CC1"
recorded_number = 27

[[record]]
molecule = "COC(=O)c1ccc2c(c1)NC(=O)/C2=C(\\Nc1ccc(N2C(=O)CC[C@@H]2CN2CCN(C)CC2)cc1)c1ccccc1"
recorded_number = 3.2

[[record]]
molecule = "COC(=O)c1ccc2c(c1)NC(=O)/C2=C(\\Nc1ccc(N2C(=O)CC[C@H]2CN2CCN(C)CC2)cc1)c1ccccc1"
recorded_number = 4.3

[[record]]
molecule = "COC(=O)c1ccc2c(c1)NC(=O)/C2=C(\\Nc1ccc2c(c1)N(C(=O)CN(C)C)CC2)c1ccccc1"
recorded_number = 15

[[record]]
molecule = "CN1CCN(CC(=O)N(C)c2ccc(N/C(=C3\\C(=O)Nc4cc(-c5ncon5)ccc43)c3ccccc3)cc2)CC1"
recorded_number = 5.3

[[record]]
molecule = "COC(=O)c1ccc2c(c1)NC(=O)/C2=C(\\Nc1ccc2c(c1)N(C(=O)CN1CC(C)OC(C)C1)CC2)c1ccccc1 (configuration not stated)"
recorded_number = 91

[[record]]
molecule = "CN1CCN(CC(=O)N(C)c2ccc(N/C(=C3\\C(=O)Nc4cc(-c5ncno5)ccc43)c3ccccc3)cc2)CC1"
recorded_number = 4.5

[[record]]
molecule = "CN1CCN(CC(=O)N(C)c2ccc(N/C(=C3\\C(=O)Nc4cc(-c5nnn(C)n5)ccc43)c3ccccc3)cc2)CC1"
recorded_number = 13

[[record]]
molecule = "CN1CCN(CC(=O)N(C)c2ccc(N/C(=C3\\C(=O)Nc4cc(-n5nccn5)ccc43)c3ccccc3)cc2)CC1"
recorded_number = 1.5


* * *

Assay: Half life in Sprague-Dawley rat at 10 mg/kg, iv by UFLC-MS/MS analysis
Type: ADME, organism-based
Conditions: in vivo
Measurement Label: half-life

[[record]]
substance_smiles = "COC(=O)c1ccc2c(c1)NC(=O)/C2=C(\\Nc1ccc2c(c1)N(C(=O)CN1CCOCC1)CC2)c1ccccc1"
measurement_label = "half-life"
result = "4.8 h"

